Target: human pIgR, full-length, on cells (human, UniProt P01833 19-764)
Sequence (P01833 19-764): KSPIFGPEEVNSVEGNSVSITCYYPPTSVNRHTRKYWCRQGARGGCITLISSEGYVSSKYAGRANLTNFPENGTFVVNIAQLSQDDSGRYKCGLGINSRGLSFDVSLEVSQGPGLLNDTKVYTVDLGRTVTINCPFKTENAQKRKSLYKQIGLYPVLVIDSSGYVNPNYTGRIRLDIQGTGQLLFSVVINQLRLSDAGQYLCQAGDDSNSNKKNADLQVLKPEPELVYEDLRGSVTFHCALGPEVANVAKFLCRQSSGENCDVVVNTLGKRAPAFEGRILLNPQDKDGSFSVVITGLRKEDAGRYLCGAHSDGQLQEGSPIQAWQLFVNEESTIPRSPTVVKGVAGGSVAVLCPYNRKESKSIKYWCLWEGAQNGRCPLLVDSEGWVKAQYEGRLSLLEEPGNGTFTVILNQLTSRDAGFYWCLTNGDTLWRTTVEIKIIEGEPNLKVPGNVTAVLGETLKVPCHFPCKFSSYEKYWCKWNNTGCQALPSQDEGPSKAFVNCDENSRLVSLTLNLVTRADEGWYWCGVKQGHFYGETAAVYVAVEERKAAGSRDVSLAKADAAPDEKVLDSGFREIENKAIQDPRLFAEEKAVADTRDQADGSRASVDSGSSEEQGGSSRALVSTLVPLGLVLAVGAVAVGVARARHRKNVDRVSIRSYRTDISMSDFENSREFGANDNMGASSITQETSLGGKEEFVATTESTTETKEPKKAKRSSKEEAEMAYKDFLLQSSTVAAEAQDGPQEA
Assay: cell-based or functional assay
Below, each entry is listed with its recorded Rev. Trans (Fold Incr.).
MEASUREMENT TYPE: Rev. Trans (Fold Incr.) (fold)

>  <BINDER>
VHH11-linker-mono-Fc protein (Fc fusion, made in CHO cells; also called VHH11-mono-Fc; hpIgR_250) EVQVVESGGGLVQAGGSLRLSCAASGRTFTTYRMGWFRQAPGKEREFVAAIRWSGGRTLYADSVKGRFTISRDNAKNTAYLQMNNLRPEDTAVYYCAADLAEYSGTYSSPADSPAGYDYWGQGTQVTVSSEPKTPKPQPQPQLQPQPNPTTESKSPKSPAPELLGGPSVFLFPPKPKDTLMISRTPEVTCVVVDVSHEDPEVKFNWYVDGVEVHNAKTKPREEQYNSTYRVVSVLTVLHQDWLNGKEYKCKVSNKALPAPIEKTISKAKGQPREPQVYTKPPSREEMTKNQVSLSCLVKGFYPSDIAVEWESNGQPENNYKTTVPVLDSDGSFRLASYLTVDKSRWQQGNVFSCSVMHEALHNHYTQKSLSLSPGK

>  <MEASUREMENT TYPE>
Rev. Trans (Fold Incr.)

>  <VALUE>
10.3

$$$$
>  <BINDER>
VHH6-linker-mono-Fc protein (Fc fusion, made in CHO cells; also called VHH6-mono-Fc; hpIgR_181) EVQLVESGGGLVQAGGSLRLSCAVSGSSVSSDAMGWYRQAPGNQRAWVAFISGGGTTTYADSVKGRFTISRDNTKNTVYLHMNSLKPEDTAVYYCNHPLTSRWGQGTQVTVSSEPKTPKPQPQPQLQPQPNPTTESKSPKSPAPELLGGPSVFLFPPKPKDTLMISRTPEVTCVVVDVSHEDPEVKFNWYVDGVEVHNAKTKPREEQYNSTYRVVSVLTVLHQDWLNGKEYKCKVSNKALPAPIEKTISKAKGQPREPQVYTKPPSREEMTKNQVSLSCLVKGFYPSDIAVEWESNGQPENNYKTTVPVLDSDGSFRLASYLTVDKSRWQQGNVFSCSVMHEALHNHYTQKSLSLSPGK

>  <MEASUREMENT TYPE>
Rev. Trans (Fold Incr.)

>  <VALUE>
14.6

$$$$
>  <BINDER>
VHH4-linker-mono-Fc protein (Fc fusion, also called VHH4-mono-Fc; hpIgR_073) EVQVVESGGGLVQAGGSLRLSCAVSGTSVSSNAMGWYRQAPGKQREWVGFIDRIATTTIATSVKGRFAITRDNAKNTVYLQMSGLKPEDTAVYYCNHPLTARWGQGTQVTVSSEPKTPKPQPQPQLQPQPNPTTESKSPKSPAPELLGGPSVFLFPPKPKDTLMISRTPEVTCVVVDVSHEDPEVKFNWYVDGVEVHNAKTKPREEQYNSTYRVVSVLTVLHQDWLNGKEYKCKVSNKALPAPIEKTISKAKGQPREPQVYTKPPSREEMTKNQVSLSCLVKGFYPSDIAVEWESNGQPENNYKTTVPVLDSDGSFRLASYLTVDKSRWQQGNVFSCSVMHEALHNHYTQKSLSLSPGK

>  <MEASUREMENT TYPE>
Rev. Trans (Fold Incr.)

>  <VALUE>
8

$$$$
>  <BINDER>
VHH7-linker-mono-Fc protein (Fc fusion, made in CHO cells; also called VHH7-mono-Fc; hpIgR_198) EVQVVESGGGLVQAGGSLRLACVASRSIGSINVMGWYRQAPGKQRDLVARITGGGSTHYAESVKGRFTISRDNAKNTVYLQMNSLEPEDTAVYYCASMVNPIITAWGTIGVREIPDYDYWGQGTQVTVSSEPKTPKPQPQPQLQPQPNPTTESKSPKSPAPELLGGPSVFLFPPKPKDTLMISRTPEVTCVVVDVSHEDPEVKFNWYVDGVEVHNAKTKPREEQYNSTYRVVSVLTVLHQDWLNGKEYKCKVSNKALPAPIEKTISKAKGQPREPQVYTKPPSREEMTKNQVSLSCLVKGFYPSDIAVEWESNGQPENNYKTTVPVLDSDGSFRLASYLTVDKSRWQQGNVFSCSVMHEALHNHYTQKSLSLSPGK

>  <MEASUREMENT TYPE>
Rev. Trans (Fold Incr.)

>  <VALUE>
3.3

$$$$
